Assay: chemical genetic growth profiling, strain panel (AID 1159580);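 also: tested at 20 µM; growth read once vehicle control cultures reached saturation at 30 °C; 1 = growth at the plate median or of vehicle wells; lower values mean less growth of the strain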
Conditions: S. cerevisiae deletion strains, growth OD, locus YGL167C, strain pmr1, hits give low values
About 2,000 (36%) of roughly 5,500 compounds were called active. Inconclusive results (about 18%) are left out. This is one part of the list.
In this section we review reported normalized growth values for a set of molecules.

MOLECULE | normalized growth
CN[C@@H]1[C@@H](O[C@H]2O[C@H](CO)[C@@H](N)[C@H](O)[C@H]2O)O[C@H]2C[C@@H](N)[C@H](O[C@H]3[C@H](O)[C@@H](O)[C@H](N)C[C@@H]3N)O[C@@H]2[C@@H]1O | 1.01
CC(=O)[O][Hg][c]1ccccc1 | 0.073
OCCN1CCN(CCCN2c3ccccc3Sc3ccc(C(F)(F)F)cc32)CC1 | 0.976
CC(=O)Oc1ccccc1C(=O)O | 1
COC1(C)CCC2OC2(C)CCC2C1CC2(C)C (centres undefined) | 1.01
CN1CCN(CCCN2c3ccccc3Sc3ccc(C(F)(F)F)cc32)CC1 | 0.0948
CCc1cccc2c3c([nH]c12)C(CC)(CC(=O)O)OCC3 (centres undefined) | 0.957
CCC1(CC)C(=O)C=CNC1=O | 1
NC[C@H]1O[C@H](O[C@H]2[C@H](O)[C@@H](O[C@H]3O[C@H](CO)[C@@H](O)[C@H](N)[C@H]3O)[C@H](N)C[C@@H]2N)[C@H](N)C[C@@H]1O | 1.01

Cited source: PubChem BioAssay AID1159580
